Target: wt-CFTR (Homo sapiens, UniProt P13569)
Sequence (P13569 whole entry): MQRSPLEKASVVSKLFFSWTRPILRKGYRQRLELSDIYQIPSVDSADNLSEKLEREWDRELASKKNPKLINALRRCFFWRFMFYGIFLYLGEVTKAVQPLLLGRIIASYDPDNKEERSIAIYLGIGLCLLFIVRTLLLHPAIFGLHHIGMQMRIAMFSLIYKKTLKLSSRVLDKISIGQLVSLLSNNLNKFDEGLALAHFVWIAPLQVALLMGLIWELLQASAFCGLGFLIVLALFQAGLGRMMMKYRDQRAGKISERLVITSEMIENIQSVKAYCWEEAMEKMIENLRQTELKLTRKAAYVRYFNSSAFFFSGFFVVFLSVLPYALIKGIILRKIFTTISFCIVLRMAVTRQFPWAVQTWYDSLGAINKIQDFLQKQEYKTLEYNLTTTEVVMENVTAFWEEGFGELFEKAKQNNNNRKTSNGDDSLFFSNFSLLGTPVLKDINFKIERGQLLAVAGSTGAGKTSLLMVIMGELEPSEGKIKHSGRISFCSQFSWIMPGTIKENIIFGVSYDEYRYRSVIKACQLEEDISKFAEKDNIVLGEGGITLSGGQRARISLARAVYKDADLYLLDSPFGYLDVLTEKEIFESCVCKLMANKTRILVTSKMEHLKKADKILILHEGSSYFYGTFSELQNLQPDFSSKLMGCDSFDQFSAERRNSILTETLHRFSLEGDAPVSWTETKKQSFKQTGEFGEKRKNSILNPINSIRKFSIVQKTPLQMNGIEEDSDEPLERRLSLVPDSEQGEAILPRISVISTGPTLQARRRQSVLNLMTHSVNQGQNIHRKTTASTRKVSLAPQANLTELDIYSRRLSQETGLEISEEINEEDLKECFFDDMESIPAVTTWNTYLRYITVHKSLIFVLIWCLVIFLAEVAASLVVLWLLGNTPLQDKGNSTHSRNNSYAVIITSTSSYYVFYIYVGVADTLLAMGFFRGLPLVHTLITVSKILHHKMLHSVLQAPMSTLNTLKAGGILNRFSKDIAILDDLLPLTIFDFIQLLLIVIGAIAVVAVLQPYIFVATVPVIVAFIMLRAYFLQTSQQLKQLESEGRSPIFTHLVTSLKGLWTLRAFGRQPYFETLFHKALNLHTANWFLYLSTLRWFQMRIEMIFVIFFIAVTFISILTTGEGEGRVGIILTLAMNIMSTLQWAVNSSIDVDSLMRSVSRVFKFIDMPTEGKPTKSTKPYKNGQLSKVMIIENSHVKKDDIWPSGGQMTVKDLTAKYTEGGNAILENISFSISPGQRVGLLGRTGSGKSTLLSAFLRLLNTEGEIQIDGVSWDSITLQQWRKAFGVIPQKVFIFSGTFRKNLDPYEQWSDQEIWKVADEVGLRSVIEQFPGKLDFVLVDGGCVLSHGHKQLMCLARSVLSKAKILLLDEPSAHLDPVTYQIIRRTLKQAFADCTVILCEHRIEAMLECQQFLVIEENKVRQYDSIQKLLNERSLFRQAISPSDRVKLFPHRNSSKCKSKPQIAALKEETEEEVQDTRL
Assay: Flow cytometry on permeabilized BHK-21 cells overexpressing wt-CFTR
Format: cell-based
Set-up: expressed in transfected cells
Conditions: compared to negative control nanobody
attribute measured: labelling of BHK-21 cells overexpressing wt-CFTR

1) D12: NBD1-specific CFTR-stabilizing nanobody, SEQ ID NO:2, binds epitope 1 (protein, D12 Nanobody amino acid sequence) VHH: QVQLQESGGGLVQAGSSLRLACAATGSIRSINNMGWYRQAPGKQRGMVAIITRVGNTDYADSVKGRFTISRDNAKNTVYLQMNSLKPEDTATYYCHAEITEQSRPFYLTDDYWGQGTQVTVSS ... increased labelling
2) G3a: non-stabilizing nanobody, SEQ ID NO:50, recognizes the structurally diverse region of NBD1 (protein, G3a Nanobody) VHH: QVQLQESGGGLVQAGGSLRLSCTASGRAFSWYVMGWFRQAPGKEREFVATVSGNGSRRDYADSVKGRFTISRDNAKNTVYLQMNSLKPEDTAVYYCAASSTYYYTDPEKYDYWGQGTQVTVSS ... increased labelling
3) T27: NBD1-specific CFTR-stabilizing nanobody, SEQ ID NO:4, binds epitope 1 (protein, T27 Nanobody amino acid sequence) VHH: QVQLQESGGGLEQPGGSLRLSCATSGVIFGINAMGWYRQAPGKQRELVATFTSGGSTNYADFVEGRFTISRDNAKNTVYLQMNGLRPEDTAVYYCHATVVVSRYGLTYDYWGQGTQVTVSS ... increased labelling
